- assay_overview: In vitro inhibitory concentration against Cdc25A protein phosphatase
endpoint_label: IC50

Below: 2 molecules and their reported IC50.
> print(dat)
                                   molecule      result
1           COC1=CC(=O)c2c(OC)cc(OC)cc2C1=O   0.4 µg/mL
2  CCCCC(O)c1c(C/C=C/CO)cc2c(c1O)C(O)=C/C(=N\C)C2=O (stereo unspecified)  > 10 µg/mL

I would be grateful if you could provide IC50 for each of the following entries.
1. CNC1=CC(=O)c2c(cc(C/C=C/CO)c(C(O)c3ccccc3)c2OC)C1=O (stereo unspecified)
2. COC1=CC(=O)c2c(OC)cc(C[C@@H]3CCOC(C)(C)O3)cc2C1=O
3. CNC1=CC(=O)c2c(OC)cc(COC)cc2C1=O
4. CNC1=CC(=O)c2c(OC)cc(C[C@@H]3CCOC(C)(C)O3)cc2C1=O
5. CCCCCC(O)c1c(C/C=C/CO)cc2c(c1OC)C(=O)C=C(OC)C2=O (stereo unspecified)
6. COC1=CC(=O)c2c(cc(C/C=C/CO)c(C(O)c3ccccc3)c2OC)C1=O (stereo unspecified)
7. CCCCC(O)c1c(C/C=C/CO)cc2c(c1O)C(=O)C=C(OC)C2=O (stereo unspecified)

Solution:
1: > 10 µg/mL; 2: 0.4 µg/mL; 3: > 10 µg/mL; 4: > 10 µg/mL; 5: 1.6 µg/mL; 6: 2.74 µg/mL; 7: 1.51 µg/mL

Entry source: ChEMBL document CHEMBL1145232
